Origin of measurements: ChEMBL document CHEMBL1134511

Target: P-selectin (Homo sapiens, UniProt P16109)
Sequence (P16109 whole entry): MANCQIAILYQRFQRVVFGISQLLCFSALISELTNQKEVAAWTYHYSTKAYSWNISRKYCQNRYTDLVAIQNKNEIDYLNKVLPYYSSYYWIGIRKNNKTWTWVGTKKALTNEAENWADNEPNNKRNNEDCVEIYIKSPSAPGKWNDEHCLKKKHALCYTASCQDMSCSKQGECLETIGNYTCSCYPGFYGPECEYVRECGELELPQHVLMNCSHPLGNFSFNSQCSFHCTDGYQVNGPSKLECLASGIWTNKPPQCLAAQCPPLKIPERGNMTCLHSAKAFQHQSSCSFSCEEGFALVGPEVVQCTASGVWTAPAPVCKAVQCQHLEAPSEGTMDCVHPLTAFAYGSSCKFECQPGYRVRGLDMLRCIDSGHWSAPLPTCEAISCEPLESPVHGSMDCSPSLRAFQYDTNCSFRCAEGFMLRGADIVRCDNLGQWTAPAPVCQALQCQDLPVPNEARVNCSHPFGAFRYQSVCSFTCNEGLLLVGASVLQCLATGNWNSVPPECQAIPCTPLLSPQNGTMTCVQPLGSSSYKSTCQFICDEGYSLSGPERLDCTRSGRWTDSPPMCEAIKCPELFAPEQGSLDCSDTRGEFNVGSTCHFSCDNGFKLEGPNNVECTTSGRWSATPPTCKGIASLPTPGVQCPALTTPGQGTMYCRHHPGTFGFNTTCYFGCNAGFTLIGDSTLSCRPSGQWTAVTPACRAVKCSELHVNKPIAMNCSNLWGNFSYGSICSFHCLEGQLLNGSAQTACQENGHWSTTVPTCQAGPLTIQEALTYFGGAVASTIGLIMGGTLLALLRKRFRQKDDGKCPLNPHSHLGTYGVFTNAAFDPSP
Test: Inhibitory activity against P-selectin using ELISA-based assay
// reported IC50 for each item listed
Unit µM implied. Number only.

Some molecules with recorded IC50:
- Molecule: "O=C(O)/C=C/c1ccc(-c2nc(-c3ccc(/C=C/C(=O)NCCCc4ccccc4)cc3)c(-c3ccc(C4=NOC(C(=O)O)C4)cc3)[nH]2)cc1 (stereo not drawn)"
  IC50, µM: 100
- Molecule: "CCCCCCCCCCCCNC(=O)/C=C/c1ccc(-c2[nH]c(-c3ccc(-c4cc(C(=O)O)on4)cc3)nc2-c2ccc(/C=C/C(=O)O)cc2)cc1"
  IC50, µM: 3
- Molecule: "O=C(/C=C/c1ccc(-c2nc(-c3ccc(N4CCCC4)cc3)[nH]c2-c2ccc(C3=NOC(C(=O)O)C3)cc2)cc1)NCCCc1ccccc1 (stereo not drawn)"
  IC50, µM: 34
- Molecule: "CCCCCCCCCCCCCCCCNC(=O)/C=C/c1ccc(-c2[nH]c(-c3ccc(C4=NOC(C(=O)O)C4)cc3)nc2-c2ccc(/C=C/C(=O)O)cc2)cc1 (stereo not drawn)"
  IC50, µM: 0.29
- Molecule: "CCCCCCCCCCCCCCCCNC(=O)/C=C/c1ccc(-c2[nH]c(-c3ccc(-c4cc(C(=O)O)on4)cc3)nc2-c2ccc(/C=C/C(=O)O)cc2)cc1"
  IC50, µM: 0.13

Task: What does the record list as IC50 for "CCCCCCCCCCCCCCCCNC(=O)/C=C/c1ccc(-c2[nH]cnc2-c2ccc(/C=C/C(=O)O)cc2)cc1" ?
Output: 17

Task: What does the record list as IC50 for "CCCCCCCc1ccc(NC(=O)/C=C/c2ccc(-c3[nH]cnc3-c3ccc(/C=C/C(=O)O)cc3)cc2)cc1" ?
Output: 16

----------
// reported IC50 for each item listed
Molecular target: P-selectin (Homo sapiens)
Assay: Inhibitory activity against P-selectin using cell-selectin protein assay
Unit µM implied. Number only.

Some compounds with recorded IC50:
- Compound: "CCCCCCCCCCCCCCCCNC(=O)/C=C/c1ccc(-c2[nH]cnc2-c2ccc(/C=C/C(=O)O)cc2)cc1"
  Readout type: "IC50"
  Test result: 40
- Compound: "CCCCCCCc1ccc(NC(=O)/C=C/c2ccc(-c3[nH]cnc3-c3ccc(/C=C/C(=O)O)cc3)cc2)cc1"
  Readout type: "IC50"
  Test result: 44
- Compound: "CCCCCCCCCCCCNC(=O)/C=C/c1ccc(-c2[nH]c(-c3ccc(-c4cc(C(=O)O)on4)cc3)nc2-c2ccc(/C=C/C(=O)O)cc2)cc1"
  Readout type: "IC50"
  Test result: 290

Task: What does the record list as IC50 for "CCCCCCCCCCCCCCCCNC(=O)/C=C/c1ccc(-c2[nH]c(-c3ccc(-c4cc(C(=O)O)on4)cc3)nc2-c2ccc(/C=C/C(=O)O)cc2)cc1" ?
Output: 2.7

Task: What does the record list as IC50 for O=C(O)/C=C/c1ccc(-c2nc(-c3ccc(/C=C/C(=O)NCCCc4ccccc4)cc3)c(-c3ccc(C4=NOC(C(=O)O)C4)cc3)[nH]2)cc1 (stereo not drawn) ?
Output: 21

Task: What does the record list as IC50 for "CCCCCCN(CCCCCC)C(=O)/C=C/c1ccc(-c2[nH]cnc2-c2ccc(/C=C/C(=O)O)cc2)cc1" ?
Output: 21

Task: What does the record list as IC50 for O=C(/C=C/c1ccc(-c2nc(-c3ccc(N4CCCC4)cc3)[nH]c2-c2ccc(C3=NOC(C(=O)O)C3)cc2)cc1)NCCCc1ccccc1 (stereo not drawn) ?
Output: 50

Task: What does the record list as IC50 for CCCCCCCCCCCCCCCCNC(=O)/C=C/c1ccc(-c2[nH]c(-c3ccc(C4=NOC(C(=O)O)C4)cc3)nc2-c2ccc(/C=C/C(=O)O)cc2)cc1 (stereo not drawn) ?
Output: 9
